The values you see were collected from the supplement of paper PMC8967900.

- Test system: P12-ICHIKAWA
- ASSAY NOTES: selective drug sensitivity score (sDSS, relative to normal bone marrow) (sDSS (score)); higher = more potent and effective on the cell line relative to normal bone marrow cells;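 note: ALL cell lines in 384-well plates, five doses spanning 10,000-fold, each plate scaled between vehicle and 100 µmol/L benzalkonium chloride controls, sDSS an adapted area-under-curve metric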
- TEST PARAMETERS: 72 h
selective drug sensitivity score values for the compounds below.

[
  {
    "COMPOUND": "CCOc1cc2ncc(C#N)c(Nc3ccc(OCc4ccccn4)c(Cl)c3)c2cc1NC(=O)/C=C/CN(C)C [Neratinib] (top concentration 1000 nM)",
    "selective drug sensitivity score": 1.28
  },
  {
    "COMPOUND": "COc1cc(OC)cc(N(CCNC(C)C)c2ccc3ncc(-c4cnn(C)c4)nc3c2)c1 [Erdafitinib] (top concentration 1000 nM)",
    "selective drug sensitivity score": -0.56
  },
  {
    "COMPOUND": "CC(C)C[C@@H](C(=O)N[C@H](C(=O)OC1CCCC1)c1ccccc1)[C@H](O)C(=O)NO [Tosedostat] (top concentration 10000 nM)",
    "selective drug sensitivity score": -0.24
  },
  {
    "COMPOUND": "O=C(c1ccc(C(=O)N2CCC(N3CCCC3)CC2)c(Nc2ccccc2)c1)N1CCC(N2CCCC2)CC1 [UNC1215] (top concentration 10000 nM)",
    "selective drug sensitivity score": 0
  },
  {
    "COMPOUND": "COc1ccc(-c2nc(N3CCOCC3)c3sc(CN(C)c4ncc(C(=O)NO)cn4)cc3n2)cn1 [Fimepinostat (CUDC-907)] (top concentration 10000 nM)",
    "selective drug sensitivity score": 5.18
  },
  {
    "COMPOUND": "CN(C)c1cc2c(cc1Sc1nc3c(N)nccc3n1CCNCC(C)(C)C)OCO2 [CUDC-305] (top concentration 10000 nM)",
    "selective drug sensitivity score": 2.82
  }
]

---

selective drug sensitivity score values for the compounds below.
- System: COG-LL-355h
- ASSAY NOTES: selective drug sensitivity score (sDSS, relative to normal bone marrow) (sDSS (score)); higher = more potent and effective on the cell line relative to normal bone marrow cells
- TEST PARAMETERS: 72 h

[
  {
    "COMPOUND": "C[C@H](Nc1ncnc2[nH]cnc12)c1cc2ccc(F)cc2nc1-c1ccccn1 [AMG319] (top concentration 1000 nM)",
    "TARGET DESC": "COG-LL-355h",
    "selective drug sensitivity score": 4.58
  },
  {
    "COMPOUND": "Cc1cc([C@@H](C)Nc2ccccc2C(=O)O)c2nc(N3CCOCC3)cc(=O)n2c1 [AZD-6482] (top concentration 2500 nM)",
    "TARGET DESC": "COG-LL-355h",
    "selective drug sensitivity score": 6.92
  },
  {
    "COMPOUND": "CN(C)Cc1c(C(=O)NCCOc2ccc(C(=O)NO)cc2)oc2ccccc12 [Abexinostat] (top concentration 10000 nM)",
    "TARGET DESC": "COG-LL-355h",
    "selective drug sensitivity score": 3.36
  },
  {
    "COMPOUND": "COc1cc2nccc(Oc3ccc(NC(=O)C4(C(=O)Nc5ccc(F)cc5)CC4)cc3)c2cc1OC [Cabozantinib] (top concentration 1000 nM)",
    "TARGET DESC": "COG-LL-355h",
    "selective drug sensitivity score": 2.18
  }
]
